The reported measurements were obtained from ChEMBL document CHEMBL4368886.

The following compounds are listed with their measured MIC values.
test system: Escherichia coli; test: Bactericidal activity against Escherichia coli CDC F-50 measured after 4 hrs; format: functional; conditions: CDC F-50, 4 h
Answer format reminder: number followed by unit.

Example results:
Record request: MIC value, item CCn1cc(C(=O)O)c(=O)c2cc(F)c(N3CCNCC3)cc21 [NORFLOXACIN] 4.7 µM

Record request: MIC value, item CCCCCCCCCC[N+](C)(C)CCNC(c1cc(C(C)(C)C)c(O)c(C(C)(C)C)c1)P(=O)(OCC)OCC.[Br-] (stereo not given) 188 µM

Record request: MIC value, item CCCCCCCCCC[N+](C)(C)CCCNC(c1cc(C(C)(C)C)c(O)c(C(C)(C)C)c1)P(=O)(OC(C)C)OC(C)C.[Br-] (stereo not given) 177 µM

Record request: MIC value, item CCCCCCCCCC[N+](C)(C)CCNC(=O)CCc1cc(C(C)(C)C)c(O)c(C(C)(C)C)c1 55 µM

New cases:
Record request: MIC value, item CCCCCCCCCC[N+](C)(C)CCCNC(=O)CCc1cc(C(C)(C)C)c(O)c(C(C)(C)C)c1 53.6 µM
